- Organism: Homo sapiens
- method.summary: Selectivity ratio of Ki for full length recombinant GST-tagged VPS34 expressed in baculovirus expression system using PI/PS as substrate incubated for 60 mins in presence of ATP at Km concentration by luminescence assay to Ki for full length recombinant FLAG-tagged human ATM assessed as decrease in p53 S15 phosphorylation using full length myc-tagged p53 as substrate incubated for 30 mins in presence of ATP by ELISA
Threshold-based label: Ratio Ki under 30 gives 1.0, Ratio Ki not under 30 gives 0.0.

Decide: Ratio Ki of C[C@@H]1CCN(c2nc(N3CCOCC3)cc(=O)[nH]2)[C@H]1Cc1ccccc1 strictly below 30?
1.0

Quick check: does COc1ccc2c(c1)Cc1cccc(-c3cc(N4CCOCC4)cc(=O)[nH]3)c1S2 have Ratio Ki under 30?
0.0

Answer whether the compound O=c1cc(N2CCOCC2)cc(N2CCCC2Cc2ccccc2)[nH]1 (racemic) has Ratio Ki strictly less than 30
1.0

Say whether its Ratio Ki is strictly beneath 30. Entry: C[C@@H]1CN(c2cc(=O)[nH]c(N3C[C@H]4C[C@H]4[C@@H]3Cc3ccccc3)n2)CCO1
0.0

State whether 30 exceeds Ratio Ki recorded for Oc1cc(N2CCC[C@@H]2Cc2ccccc2)nc(N2CCOCC2)n1 .
1.0

Dear colleague, could you confirm whether Ratio Ki of O=c1cc(N2CCOCC2)cc(N2C[C@H]3C[C@H]3[C@@H]2Cc2ccccc2)[nH]1 falls below 30? Thanks.
0.0

Problem: For the compound O=c1cc(N2CCOCC2)nc(N2C[C@@H]3C[C@@H]3[C@@H]2Cc2ccccc2)[nH]1 , is Ratio Ki under 30?
1.0

Lab note: Ratio Ki threshold 30. Does this compound come in strictly under it? O=c1cc(N2CCOCC2)cc(N2CCC[C@@H]2Cc2ccccc2)[nH]1
1.0

---

- method.summary: Half life in C57Bl/6 mouse at 0.8 mg/kg, iv administered as single dose
- Format: ADME, organism-based
- measurement.context: in vivo
metric.name: half-life (min)
Output spec: scalar in min, unitless text.

Annotate the compound C[C@@H]1CCN(c2nc(N3CCOCC3)cc(=O)[nH]2)[C@H]1Cc1ccccc1 with its measured half-life.
45

---

- method.summary: Unbound brain-to-plasma concentration ratio in C57Bl/6 mouse at 0.8 mg/kg, iv administered as single dose
- Type: ADME, organism-based
- measurement.context: brain and plasma, read-out: K(p,uu,brain)
metric.name: Kp uu
When you answer, write just the number.

Look up Kp uu of C[C@@H]1CCN(c2nc(N3CCOCC3)cc(=O)[nH]2)[C@H]1Cc1ccccc1 and report it.
0.47

---

- method.summary: Kinetic solubility of the compound in pH 7.4 PBS buffer incubated for 2 hrs using orbital shaker by LC-UV mass spectrometry
- Assay type: physicochemical
- measurement.context: read-out: Kinetic_solubility
Note: every record was labeled by where its solubility kinetic at 2 h sits among low-valued (below 4 µg/mL), mid-valued (4 µg/mL to below 50 µg/mL), high-valued (50 µg/mL or more)

Class (by measured solubility kinetic at 2 h) for COc1ccc2c(c1)Cc1cccc(-c3nc(O)cc(N4CCOCC4)n3)c1S2
low-valued

Form: Item = O=c1cc(N2CCOCC2)nc(N2C[C@H]3C[C@H]3[C@@H]2Cc2ccccc2)[nH]1 ; Class = ?
high-valued

Band assignment needed for COc1ccc2c(c1)Cc1cccc(-c3cc(=O)cc(N4CCOCC4)[nH]3)c1S2 please.
low-valued

Determine which band this molecule sits in: O=c1cc(N2CCOCC2)cc(N2CC[C@@H](F)[C@@H]2Cc2ccccc2)[nH]1
high-valued

Form field 'band' for O=c1cc(N2CCOCC2)cc(N2CCCC2Cc2ccccc2)[nH]1 (racemic)
high-valued

Which category does the recorded solubility kinetic at 2 h put C[C@@H]1CN(c2cc(N3C[C@@H]4C[C@@H]4[C@@H]3Cc3ccccc3)[nH]c(=O)c2)CCO1 in?
mid-valued

Please indicate the class for Oc1cc(N2CCC[C@@H]2Cc2ccccc2)nc(N2CCOCC2)n1 based on its solubility kinetic at 2 h.
high-valued

Where would O=c1cc(N2CCOCC2)nc(N2CCCCC[C@@H]2Cc2ccccc2)[nH]1 land among the classes by reported solubility kinetic at 2 h?
mid-valued

State the band of C[C@@H]1CN(c2cc(=O)[nH]c(N3CCCCC[C@@H]3Cc3ccccc3)n2)CCO1
mid-valued

Would you mind sorting O=c1cc(N2CCOCC2)cc(N2CCCCC[C@@H]2Cc2ccccc2)[nH]1 into the appropriate category?
high-valued

Form: Item = COc1ccc2c(c1)Cc1cccc(-c3cc(N4CCOCC4)cc(=O)[nH]3)c1S2 ; Class = ?
mid-valued

Recorded values, source ChEMBL document CHEMBL4823251.
